TGT: Gcr1 (UniProt P07261)
Sequence: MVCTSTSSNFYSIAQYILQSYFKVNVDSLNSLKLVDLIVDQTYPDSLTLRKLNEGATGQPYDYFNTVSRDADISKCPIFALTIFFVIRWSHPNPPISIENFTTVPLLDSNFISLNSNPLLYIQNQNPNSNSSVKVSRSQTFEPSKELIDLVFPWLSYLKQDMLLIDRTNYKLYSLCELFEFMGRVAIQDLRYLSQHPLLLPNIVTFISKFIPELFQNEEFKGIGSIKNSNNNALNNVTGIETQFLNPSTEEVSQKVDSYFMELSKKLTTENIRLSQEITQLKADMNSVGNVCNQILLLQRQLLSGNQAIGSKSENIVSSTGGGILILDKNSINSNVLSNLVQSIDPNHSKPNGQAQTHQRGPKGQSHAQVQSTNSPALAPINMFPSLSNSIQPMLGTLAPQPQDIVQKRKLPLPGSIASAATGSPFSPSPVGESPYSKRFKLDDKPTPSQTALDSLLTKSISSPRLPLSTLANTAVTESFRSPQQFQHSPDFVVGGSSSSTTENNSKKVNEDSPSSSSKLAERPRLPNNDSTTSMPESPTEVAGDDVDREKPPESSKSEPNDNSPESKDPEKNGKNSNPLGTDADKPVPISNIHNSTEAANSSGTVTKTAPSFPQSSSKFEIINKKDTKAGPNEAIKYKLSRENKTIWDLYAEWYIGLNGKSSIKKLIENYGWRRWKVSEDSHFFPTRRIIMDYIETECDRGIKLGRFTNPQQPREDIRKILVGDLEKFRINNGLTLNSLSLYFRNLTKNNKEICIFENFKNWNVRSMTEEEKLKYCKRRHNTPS
ASSAY_METHOD_TEXT: PBM E-score (8-mer binding enrichment) (E-score (-0.5 to 0.5)); higher = stronger / more preferred TF binding
CONDITION_SET: protein concentration: 100 nM; construct: GST-full length
The full ranking holds about 33,000 sequences; the median of “E-score (-0.5 to 0.5)” is about -0.011, and the highest 2% start at about 0.28. For the sample, the highest values were picked, then their nearest neighbours and some sequences at random.
Everything with PBM E-score lower than 0.2 is no (0); everything else, including exactly 0.2, is yes (1).

>>> answer_label("CCAACCAA")
"no (0)"
>>> answer_label("ACAGCACA")
"no (0)"
>>> answer_label("GCGCCCAC")
"yes (1)"
>>> answer_label("CAGAAGCA")
"no (0)"
>>> answer_label("CTTTGGAC")
"no (0)"
>>> answer_label("ACACGCAC")
"no (0)"
>>> answer_label("AAGTTCAA")
"no (0)"
>>> answer_label("GGCAACCA")
"yes (1)"

Data request: # bool: PBM E-score of GCGCCCGC >= 0.2
Data returned: yes (1)

Data request: Assess whether reported PBM E-score for TGAACCAA sits at 0.2 or higher.
Data returned: no (0)

Data request: PBM E-score >= 0.2 for ATACGCAT ?
Data returned: yes (1)

Data request: Textbook exercise: given the entry GGACGCTA , state whether its PBM E-score is greater than or equal to 0.2.
Data returned: yes (1)

Data request: hey, is PBM E-score for this one >= 0.2? ATCGAGCG
Data returned: no (0)

Data request: Is reported PBM E-score greater than or equal to 0.2 here: CGCAACCA
Data returned: no (0)

Data request: Can GATGGGAA be said to have PBM E-score at or above 0.2?
Data returned: no (0)

---

TGT: Gcr1 (UniProt P07261)
Sequence: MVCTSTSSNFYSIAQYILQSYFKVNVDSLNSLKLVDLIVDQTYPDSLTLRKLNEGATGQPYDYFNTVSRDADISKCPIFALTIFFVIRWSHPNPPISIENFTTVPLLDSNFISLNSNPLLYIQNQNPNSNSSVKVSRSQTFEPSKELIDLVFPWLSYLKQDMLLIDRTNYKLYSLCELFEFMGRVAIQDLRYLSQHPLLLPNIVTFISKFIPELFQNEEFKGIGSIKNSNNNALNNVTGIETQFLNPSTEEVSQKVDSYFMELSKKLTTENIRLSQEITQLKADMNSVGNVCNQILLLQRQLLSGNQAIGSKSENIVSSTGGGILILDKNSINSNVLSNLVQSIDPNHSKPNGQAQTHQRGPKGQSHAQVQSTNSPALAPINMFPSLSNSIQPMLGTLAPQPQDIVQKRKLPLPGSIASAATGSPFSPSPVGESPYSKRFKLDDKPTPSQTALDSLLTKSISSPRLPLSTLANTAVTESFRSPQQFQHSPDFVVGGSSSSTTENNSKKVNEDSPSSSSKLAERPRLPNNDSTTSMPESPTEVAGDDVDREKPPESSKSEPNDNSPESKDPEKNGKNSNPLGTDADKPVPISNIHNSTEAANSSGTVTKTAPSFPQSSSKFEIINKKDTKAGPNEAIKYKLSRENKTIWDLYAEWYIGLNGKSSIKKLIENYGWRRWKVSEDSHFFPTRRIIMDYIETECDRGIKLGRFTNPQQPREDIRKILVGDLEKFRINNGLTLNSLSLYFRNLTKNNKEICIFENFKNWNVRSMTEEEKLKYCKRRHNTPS
ASSAY_METHOD_TEXT: PBM E-score (8-mer binding enrichment) (E-score (-0.5 to 0.5)); higher = stronger / more preferred TF binding
CONDITION_SET: protein concentration: 100 nM; construct: GST-full length
Whole data set: some 33,000 sequences, median “E-score (-0.5 to 0.5)” near -0.011, cut for the highest 2% near 0.28. This is one part of a sample in which the highest values are shown more often than they occur.
If the reported PBM E-score equals or exceeds 0.1, assign met. If not, assign not met.

>>> answer_label("CCACTAAA")
"met"

Data request: Entry GAGTGATA : is its PBM E-score no less than 0.1?
Data returned: not met

---

Answer each item with its documented PBM E-score.
TGT: Gcr1 (UniProt P07261)
Sequence: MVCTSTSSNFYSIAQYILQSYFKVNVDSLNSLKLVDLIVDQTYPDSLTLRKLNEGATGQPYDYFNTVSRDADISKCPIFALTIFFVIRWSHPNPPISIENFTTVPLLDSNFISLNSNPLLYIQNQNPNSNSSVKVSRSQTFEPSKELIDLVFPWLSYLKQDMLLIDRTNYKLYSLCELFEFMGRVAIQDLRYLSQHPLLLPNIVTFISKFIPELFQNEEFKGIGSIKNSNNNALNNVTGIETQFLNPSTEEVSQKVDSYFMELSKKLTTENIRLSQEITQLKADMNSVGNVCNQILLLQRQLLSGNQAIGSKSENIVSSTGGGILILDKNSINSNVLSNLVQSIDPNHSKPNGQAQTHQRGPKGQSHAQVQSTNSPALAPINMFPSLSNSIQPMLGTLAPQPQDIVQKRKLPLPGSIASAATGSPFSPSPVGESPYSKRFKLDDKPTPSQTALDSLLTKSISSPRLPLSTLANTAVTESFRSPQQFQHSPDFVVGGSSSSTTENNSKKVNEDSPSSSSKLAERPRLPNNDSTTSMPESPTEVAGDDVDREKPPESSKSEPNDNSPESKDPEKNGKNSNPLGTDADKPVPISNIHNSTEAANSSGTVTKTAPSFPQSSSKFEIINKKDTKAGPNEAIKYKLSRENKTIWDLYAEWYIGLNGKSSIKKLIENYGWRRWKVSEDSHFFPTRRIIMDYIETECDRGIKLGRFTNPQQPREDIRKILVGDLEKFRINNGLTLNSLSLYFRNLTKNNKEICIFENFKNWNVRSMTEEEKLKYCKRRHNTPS
ASSAY_METHOD_TEXT: PBM E-score (8-mer binding enrichment) (E-score (-0.5 to 0.5)); higher = stronger / more preferred TF binding
CONDITION_SET: protein concentration: 100 nM; construct: GST-full length
Over roughly 33,000 sequences, “E-score (-0.5 to 0.5)” has its median near -0.011; the highest 2% begin near 0.28. The full list was thinned out, with the highest values kept by preference.
Numbers only.

>>> recorded_result("AATCTGGT")
0.281

Record PBM E-score per entry; entries follow.
1. GAGGATAC
2. CGGTCCAC
3. GAGGACAC

Data returned:
1. -0.00197
2. -0.225
3. -0.225

Your task in this section: give PBM E-score for each listed record.
1. CCGGATGC
2. AAGGACGC
3. AGCTAAAC
4. ACACGAAT

Data returned:
0.4
0.256
-0.126
0.319

Batch request: PBM E-score per item, same order as input.
1. GAGGACGC
2. AATCTGGC
3. GCAGAGAA
4. ACCAGATA
5. ACTCAATA
6. CGACCCCC
7. CGCCATAG
8. AATGAGTA

Data returned:
1. 0.289
2. 0.0826
3. -0.0151
4. 0.0838
5. 0.156
6. -0.203
7. -0.14
8. 0.143

Hey, can you go through the list below and give me PBM E-score for every item?
1. GACTGGCC
2. CGCTGAGC

Data returned:
-0.151
0.0119

Each of the following entries comes with a recorded value; kindly state PBM E-score for each.
1. CTGCTACA
2. AATACTGG

Data returned:
1. 0.0929
2. 0.369

Provide the reported PBM E-score of each entry below, same order.
1. GAGGATGA
2. AACCATCG
3. AGGCCTAA
4. ACGGATGC
5. CCGGATGA
6. AATCTGGA
7. GCTTGGAA

Data returned:
[-0.0555, -0.148, -0.0235, 0.183, 0.112, 0.257, -0.114]
